# Test system: MDA-MB-231
# EXPERIMENT DESCRIPTION: Anticancer activity against human MDA-MB-231 cells after 48 hrs by SRB assay
# Type: functional
# EXPERIMENTAL CONTEXT: MDA-MB-231, 48 h
PROPERTY MEASURED: TGI (µM)

- CPD SMILES: "COc1cccc(-c2nc3sccn3c2-c2ccnc(NCCNC(=O)Nc3cccc(C(F)(F)F)c3)n2)c1"
  TEST TARGET: "MDA-MB-231"
  PROPERTY MEASURED: "TGI"
  NUMERIC READOUT: 12
- CPD SMILES: "O=C(NCCNc1nccc(-c2c(-c3cccc(O)c3)nc3sccn23)n1)c1ccccc1O"
  TEST TARGET: "MDA-MB-231"
  PROPERTY MEASURED: "TGI"
  NUMERIC READOUT: 62.3
- CPD SMILES: "O=C(NCCNc1nccc(-c2c(-c3cccc(O)c3)nc3sccn23)n1)Nc1cccc(C(F)(F)F)c1"
  TEST TARGET: "MDA-MB-231"
  PROPERTY MEASURED: "TGI"
  NUMERIC READOUT: 12.3
- CPD SMILES: "O=C(NCCNc1nccc(-c2c(-c3cccc(O)c3)nc3sccn23)n1)c1ccccc1"
  TEST TARGET: "MDA-MB-231"
  PROPERTY MEASURED: "TGI"
  NUMERIC READOUT: 31.5

----------
# Test system: SK-MEL-2
# EXPERIMENT DESCRIPTION: Anticancer activity against human SK-MEL-2 cells assessed as cell growth at 10^-5 M after 48 hrs by SRB assay
# Type: functional
# EXPERIMENTAL CONTEXT: SK-MEL-2, 48 h, read-out: Activity
Readings of growth at 10 µM for the listed compounds
PROPERTY MEASURED: growth at 10 µM (%)

- CPD SMILES: "COc1cccc(-c2nc3sccn3c2-c2ccnc(NCCNC(=O)c3ccc(N4CCOCC4)c(C(F)(F)F)c3)n2)c1"
  PROPERTY MEASURED: "growth at 10 µM"
  UNIT OF MEASUREMENT: "%"
  NUMERIC READOUT: 86.5
- CPD SMILES: "O=C(NCCNc1nccc(-c2c(-c3cccc(O)c3)nc3sccn23)n1)c1ccccc1O"
  PROPERTY MEASURED: "growth at 10 µM"
  UNIT OF MEASUREMENT: "%"
  NUMERIC READOUT: 13.9
- CPD SMILES: "O=C(NCCNc1nccc(-c2c(-c3cccc(O)c3)nc3sccn23)n1)c1cc(C(F)(F)F)cc(C(F)(F)F)c1"
  PROPERTY MEASURED: "growth at 10 µM"
  UNIT OF MEASUREMENT: "%"
  NUMERIC READOUT: 101
- CPD SMILES: "COc1cccc(-c2nc3sccn3c2-c2ccnc(NCCNC(=O)c3cccc(C(F)(F)F)c3)n2)c1"
  PROPERTY MEASURED: "growth at 10 µM"
  UNIT OF MEASUREMENT: "%"
  NUMERIC READOUT: 77
- CPD SMILES: "O=C(NCCNc1nccc(-c2c(-c3cccc(O)c3)nc3sccn23)n1)c1ccc(N2CCOCC2)c(C(F)(F)F)c1"
  PROPERTY MEASURED: "growth at 10 µM"
  UNIT OF MEASUREMENT: "%"
  NUMERIC READOUT: 66.7
- CPD SMILES: "COc1cccc(-c2nc3sccn3c2-c2ccnc(NCCNC(=O)c3ccccc3O)n2)c1"
  PROPERTY MEASURED: "growth at 10 µM"
  UNIT OF MEASUREMENT: "%"
  NUMERIC READOUT: 80.7
- CPD SMILES: "COc1cccc(-c2nc3sccn3c2-c2ccnc(NCCNC(=O)c3cc(C(F)(F)F)cc(C(F)(F)F)c3)n2)c1"
  PROPERTY MEASURED: "growth at 10 µM"
  UNIT OF MEASUREMENT: "%"
  NUMERIC READOUT: 81.8
- CPD SMILES: "O=C(NCCNc1nccc(-c2c(-c3cccc(O)c3)nc3sccn23)n1)c1cccc(C(F)(F)F)c1"
  PROPERTY MEASURED: "growth at 10 µM"
  UNIT OF MEASUREMENT: "%"
  NUMERIC READOUT: 62.1
- CPD SMILES: "O=C(NCCNc1nccc(-c2c(-c3cccc(O)c3)nc3sccn23)n1)c1ccccc1"
  PROPERTY MEASURED: "growth at 10 µM"
  UNIT OF MEASUREMENT: "%"
  NUMERIC READOUT: 45.5
